B1: TPR t1 (parent)
chain: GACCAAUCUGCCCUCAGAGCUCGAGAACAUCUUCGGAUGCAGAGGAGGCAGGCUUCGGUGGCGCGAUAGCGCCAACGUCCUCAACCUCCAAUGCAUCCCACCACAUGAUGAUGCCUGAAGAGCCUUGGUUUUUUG

# Variants of: B1
# PROCEDURE_DETAILS: polymerase ribozyme fitness, log enrichment relative to wild type (log ratio); higher = more active; in vitro selection for triplet polymerase activity
We'd kindly ask you to apply these polymerase ribozyme fitness (log ratio) classes: zone 1 (below -4), zone 2 (-4 to below -2), zone 3 (-2 or more)

# MUTATION_LABEL, ANSWER_LABEL
rows = [
    ("C12U G48A G51U C56A", "zone 2"),
    ("C20A G36C U126C", "zone 1"),
    ("C76G A84U U133G", "zone 3"),
    ("C13A C49U C53G U112C", "zone 2"),
    ("G58A G135U", "zone 3"),
    ("C114A G128C", "zone 2"),
    ("G36U U78G A105C", "zone 2"),
    ("C49G G69U U125A G128A", "zone 2"),
    ("C53G G63A C94A C115G G128C", "zone 1"),
    ("U87A A119U G128A U131G", "zone 3"),
    ("A50G U54C G63U C88U U130G", "zone 2"),
]
